measured.on: T1, human tissue factor pathway inhibitor (TFPI) (human, UniProt P10646 29-304, limits assumed)
T1 construct: bought; also called hTFPI; human TFPI
T1 sequence (looked up): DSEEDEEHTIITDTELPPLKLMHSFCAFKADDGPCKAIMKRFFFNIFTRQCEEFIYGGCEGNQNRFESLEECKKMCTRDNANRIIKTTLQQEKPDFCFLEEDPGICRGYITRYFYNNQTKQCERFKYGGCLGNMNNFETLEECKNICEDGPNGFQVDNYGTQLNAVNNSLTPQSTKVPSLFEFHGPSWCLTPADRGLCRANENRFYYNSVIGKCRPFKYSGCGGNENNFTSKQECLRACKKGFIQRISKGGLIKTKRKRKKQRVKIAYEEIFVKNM
procedure.summary: competitive ELISA
variant/wild-type listing for selected binders.

| binder | variant/wild-type / ratio |
| --- | --- |
| 4B7 LC_D33F LC_Y54F (Fab, V domains shown) VH: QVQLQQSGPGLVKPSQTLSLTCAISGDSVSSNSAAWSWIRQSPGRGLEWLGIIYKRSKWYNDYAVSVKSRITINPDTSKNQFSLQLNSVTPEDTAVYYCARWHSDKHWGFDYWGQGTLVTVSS VL: DIVMTQSPLSLPVTPGEPASISCRSSQSLVFSFGNTYLNWYLQKPGQSPQLLIFKGSNRASGVPDRFSGSGSGTDFTLKISRVEAEDVGVYYCQQYDSYPLTFGQGTKVEIKR | 4.3 |
| 4B7 LC_N35T (Fab, V domains shown) VH: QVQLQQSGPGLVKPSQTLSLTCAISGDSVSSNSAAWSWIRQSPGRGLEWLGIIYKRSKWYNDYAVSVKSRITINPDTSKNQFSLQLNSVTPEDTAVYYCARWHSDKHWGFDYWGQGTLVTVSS VL: DIVMTQSPLSLPVTPGEPASISCRSSQSLVFSDGTTYLNWYLQKPGQSPQLLIYKGSNRASGVPDRFSGSGSGTDFTLKISRVEAEDVGVYYCQQYDSYPLTFGQGTKVEIKR | 5.4 |
| 4B7 HC_D62S (Fab, V domains shown) VH: QVQLQQSGPGLVKPSQTLSLTCAISGDSVSSNSAAWSWIRQSPGRGLEWLGIIYKRSKWYNSYAVSVKSRITINPDTSKNQFSLQLNSVTPEDTAVYYCARWHSDKHWGFDYWGQGTLVTVSS VL: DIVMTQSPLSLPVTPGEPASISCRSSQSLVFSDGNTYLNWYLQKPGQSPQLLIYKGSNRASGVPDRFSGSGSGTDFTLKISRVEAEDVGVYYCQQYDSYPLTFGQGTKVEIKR | 29.3 |
